assayed.target: D(2) dopamine receptor (Homo sapiens)
Sequence (P14416 whole entry): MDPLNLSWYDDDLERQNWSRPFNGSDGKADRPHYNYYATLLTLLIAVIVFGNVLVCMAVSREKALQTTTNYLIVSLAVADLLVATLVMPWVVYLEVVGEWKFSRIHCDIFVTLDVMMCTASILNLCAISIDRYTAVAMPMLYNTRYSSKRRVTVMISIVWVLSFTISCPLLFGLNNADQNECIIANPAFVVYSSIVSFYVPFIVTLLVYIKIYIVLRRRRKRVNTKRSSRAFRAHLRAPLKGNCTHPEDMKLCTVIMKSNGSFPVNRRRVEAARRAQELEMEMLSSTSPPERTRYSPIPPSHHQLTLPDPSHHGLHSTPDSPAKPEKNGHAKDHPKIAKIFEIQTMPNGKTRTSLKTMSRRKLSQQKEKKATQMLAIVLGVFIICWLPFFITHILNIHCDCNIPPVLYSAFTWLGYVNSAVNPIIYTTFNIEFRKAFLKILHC
test.name: Displacement of [3H]N-methylspiperone from human dopamine D2 receptor
readout.kind: Ki (nM)
Respond with the bare value in nM.

Lookup: Provide one value: measured Ki of COc1cc2c3c(c1OC)-c1cc4c(cc1CC3N(C)CC2)OCO4 (racemic) [NANTENINE]
Found: 858

* * *

assayed.target: Alpha-1B adrenergic receptor (Homo sapiens, UniProt P35368)
Sequence (P35368 whole entry): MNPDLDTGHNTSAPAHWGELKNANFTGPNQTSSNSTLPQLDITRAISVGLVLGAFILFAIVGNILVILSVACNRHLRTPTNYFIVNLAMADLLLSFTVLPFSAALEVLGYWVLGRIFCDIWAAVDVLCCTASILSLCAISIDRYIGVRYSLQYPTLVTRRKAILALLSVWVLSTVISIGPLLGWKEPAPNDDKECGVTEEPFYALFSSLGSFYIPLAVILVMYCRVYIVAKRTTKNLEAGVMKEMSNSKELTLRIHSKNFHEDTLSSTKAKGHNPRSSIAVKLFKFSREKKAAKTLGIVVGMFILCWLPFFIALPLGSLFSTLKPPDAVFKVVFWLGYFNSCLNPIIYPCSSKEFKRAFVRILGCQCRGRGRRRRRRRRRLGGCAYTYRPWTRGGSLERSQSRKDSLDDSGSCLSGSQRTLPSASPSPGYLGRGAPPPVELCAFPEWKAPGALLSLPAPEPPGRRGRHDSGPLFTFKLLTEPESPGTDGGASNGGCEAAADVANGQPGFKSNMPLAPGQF
readout.kind: pKi
Formally, pKi is defined as -log10 of the concentration c, with c in mol/L.

Lookup: Provide one value: measured pKi of COc1cc2c3c(c1OC)-c1cc4c(cc1CC3N(C)CC2)OCO4 (racemic)
Found: 5.92
